tested on: MS2 coat protein; assay: apparent KD of MS2 coat protein, switch ON state; designed switch direction (-1 OFF switch, 1 ON switch): 1; higher = weaker reporter binding; conditions: FMN input: 0 or 200 uM; Eterna round: R93 (includes R88 designs)
Label 1 (yes) when apparent KD of MS2 coat protein is at or above 30 nM; otherwise label 0 (no).

Given the entry AUAAAUAAAAGCGAGGAUAUCCAAAAAAAAACAUGAGGAUCACCCAUGUAAAAGAAAAUAAAAUGGGAGAAGGCGCAAAAUAAAU [SS2 M 9] , answer whether its apparent KD of MS2 coat protein meets or surpasses 30 nM.
0 (no)

Given the entry AUAACACAUGAGGAUCACCCAUGUAGAUCCACGUCAGGAUAUGCAAAGAAAAUAAACAAAGCAGAAGGGACAAUAA [SS 1 Tesla 1] , answer whether its apparent KD of MS2 coat protein meets or surpasses 30 nM.
1 (yes)

Given the entry AGAAAUAAACCGAAGGAUAUCCAAACCUAAACAUGAGGAUCACCCAUGUAAAAGAAAAUAAAAUGGGAGAAGGUCGGAAAUAAGA [Designing denovo 13] , answer whether its apparent KD of MS2 coat protein meets or surpasses 30 nM.
0 (no)

Given the entry AAAAAACAUGAGGAUCACCCAUGUGCAAAAUUCGCAGGAUAUCCCUUUUUUAAAUGGGAGGGAGAAGGGUGUAAAA [Nob's Hobby 18 - Jieux - Same State 1] , answer whether its apparent KD of MS2 coat protein meets or surpasses 30 nM.
0 (no)

Given the entry AGAAAUAAAAGAGAGGAUAUCCUAAAGAAAACAUGAGGAUCACCCAUGUAAAAGAAAAUAAAAUGGGAGAAGGCUCAAAAUAAAG [80%, More Helter Skelter 2] , answer whether its apparent KD of MS2 coat protein meets or surpasses 30 nM.
0 (no)

---

Answer each item with its documented apparent KD of MS2 coat protein.
tested on: MS2 coat protein; assay: apparent KD of MS2 coat protein; designed switch direction (-1 OFF switch, 1 ON switch): 1; higher = weaker reporter binding; settings: input ligand: none
Only the number, expressed in nM, is required.

Lab note: measured apparent KD of MS2 coat protein of GGCCUGCCGCAAGGAUAUGAAGCUUUCGCUCCGUCAGAAGGUGCACAUGAGGAUCACCCAUGUAUGCAGGCCAAGAAAUAAACC [Tisoenat] (Eterna round: R96, puzzle: Same State NG 1) was 37.1

Lab note: measured apparent KD of MS2 coat protein of GGAGCCGGCCUAGGAUAUUUCAUUAAAAUACAUGAGGAUCACCCAUGUAGGCCAGAAGGCCUUGGGAAGAAGGAGGUCGGCUCC [Loop Effect - U24,U29] (Eterna round: R96, puzzle: Same State NG 2) was 23.1

Lab note: measured apparent KD of MS2 coat protein of AAAUAGCAUGGAAACAUGCUAAAAACUGUACAUGAGGAUCACCCAUGUCAUGUGUAGGCUUUUUGUUCGUCUUAUAA [Effort 12] (Eterna round: R96, puzzle: Sensor for hsa-mir-208a) was 27.8

---

system: MS2 coat protein; test: apparent KD of MS2 coat protein; designed switch direction (-1 OFF switch, 1 ON switch): 1; higher = weaker reporter binding; conditions: input ligand: none
propertyMeasured: apparent KD of MS2 coat protein

Sample GCUACCAUUGAAGCCAACAUGAGGAUCACCCAUGUAUGUUGGUAGGAUAUCGUUUGCUUUGCAAACGAGAAGGGCUAAGGUAGC [JL SSNG3 1.27] (Eterna round: R96, puzzle: Same State NG 3) , system: MS2 coat protein. Its apparent KD of MS2 coat protein is 77.1 nM

Sample UGUUGUAUUACAGGAUAUCUAUGAUUUUUACUUAGAGAAGGGUAUUCACAUGAGGAUCACCCAUGUAUAUACGAGGAAGUUGUG [JMF's solution 67] (Eterna round: R96, puzzle: Same State NG 1) , system: MS2 coat protein. Its apparent KD of MS2 coat protein is 44.2 nM

Sample GGAGCCAAGGCAGGAUAUUCAUAUUAAUAACACAUGAGGAUCACCCAUGUGGCCAGAAGGCCUUGGGAGAAGGGCCAUGGCUCG [Xeonanis - 13 mod9] (Eterna round: R96, puzzle: Same State NG 2) , system: MS2 coat protein. Its apparent KD of MS2 coat protein is 95.3 nM

Sample AUUGCUUUCGCAGGAUAUGAUGCGAAAAUUGCGUCAGAAGGGUGGAGUAUCUCAUUGCAACAGGACAUGAGGAUCACCCAUGUC [SameState NG1 #88] (Eterna round: R96, puzzle: Same State NG 1) , system: MS2 coat protein. Its apparent KD of MS2 coat protein is 248 nM

Sample CGGACUCCCUUAGGAUAUGGGAAAGGAAGUGUACCAGAAGGAAGGGUUCCGAUCCUCCAACAUGAGGAUCACCCAUGUAUGAGG [PowerStrip SSNG 1.3] (Eterna round: R96, puzzle: Same State NG 1) , system: MS2 coat protein. Its apparent KD of MS2 coat protein is 22.6 nM

---

tested on: MS2 coat protein; assay: apparent KD of MS2 coat protein; designed switch direction (-1 OFF switch, 1 ON switch): -1; higher = weaker reporter binding; conditions: input ligand: none
Label Satisfied when apparent KD of MS2 coat protein is at or above 200 nM; otherwise label Not satisfied.

Given the entry AAUAGACAUGAGGAUCACCCAUGUCAGGAUAUUUCGAGUAAGGUGGGCCUAGAAUUGGGAAGAAGGGACCUGGA [Eternabot (L1) Solution 29] (Eterna round: R97, puzzle: Exclusion 1) , answer whether its apparent KD of MS2 coat protein meets or surpasses 200 nM.
Not satisfied

Given the entry GGAGGAAACGUAGGAUAUUGAAUAAAGCGGAAACGCAAGACAUGAGGAUCACCCAUGUGUCCGGACGAGAAGGGCGAAGAAGAA [AK 1] (Eterna round: R96, puzzle: Exclusion NG 2) , answer whether its apparent KD of MS2 coat protein meets or surpasses 200 nM.
Not satisfied

Given the entry ACAUGUGUUGUAGGAUAUAGGAGACAUGAGGAUCACCCAUGUUGAUUCAUGUCUAUGGAAACGUCCUAGAAGGACGACAAUAUG [Ex NG2 #19] (Eterna round: R96, puzzle: Exclusion NG 2) , answer whether its apparent KD of MS2 coat protein meets or surpasses 200 nM.
Satisfied

Given the entry GAUCCACAUGAGGAUCACCCAUGUGAGGAUAUGAUACUAUGUACUUCGGUACAUAGUAUCAGAAGGCAUAUGAA [Ex1-3: 47] (Eterna round: R96, puzzle: Exclusion 1) , answer whether its apparent KD of MS2 coat protein meets or surpasses 200 nM.
Not satisfied

---

Answer each item with its documented apparent KD of MS2 coat protein.
system: MS2 coat protein; test: apparent KD of MS2 coat protein; designed switch direction (-1 OFF switch, 1 ON switch): -1; higher = weaker reporter binding; conditions: input ligand: none
Only the number, expressed in nM, is required.

Lab note: measured apparent KD of MS2 coat protein of AAGUUGUGAGGAUAUACACAUCGUGCGGAAAGAUCCUUGUCACAUGAGGAUCACCCAUGUAGAAGGCGCGGUAU [Eternabot (L1) Solution 94] (Eterna round: R97, puzzle: Exclusion 2) was 740

Lab note: measured apparent KD of MS2 coat protein of UUAUUAGCAGGAUAUAUCCAGGAUUACAUGAGGAUCACCCAUGUGGCCGCUUGAAAUUCUAUAGAAGGGCUUUAUU [Mod of ViennaUCT 36 - Jieux - Exclusion 5] (Eterna round: R97, puzzle: Exclusion 5) was 45.8

---

test system: K4 kissing-loop RNA reporter; assay: apparent KD of K4 kissing-loop reporter; higher = weaker reporter binding; details: Eterna round: R107; input ligand: none;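 further: bound reporter read as fluorescence of individual clusters on recovered sequencing chips by microscopy, with normalized cluster intensities fitted with a binding model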
Label fulfilled when apparent KD of K4 kissing-loop reporter is at or above 200 nM; otherwise label not fulfilled.

Given the entry CGACGCCGGUCGGCCGCCACUCACAGCAGCCAGUGAUGUUGGAUUGUAGCGGAGUGAUGUUUCGCGAGGACCGGGACUGCAGUCG [Same State Tryptophan B GF 12] , answer whether its apparent KD of K4 kissing-loop reporter meets or surpasses 200 nM.
not fulfilled

Given the entry GUUACGCAUGGAAGGAGCGCGAAUUUAAUUAGUGAGUGAUGUUCACAUAAAAUGUAUAAUACGCAGGUAGGUCGCCAUGUGUAAC [whbob_Ex_Arginine_B_2th163] , answer whether its apparent KD of K4 kissing-loop reporter meets or surpasses 200 nM.
not fulfilled

Given the entry AGACUACCACACUGUCAAUAGACAGUGAACUAGGAUAUGCUGAUAAGCAGAAGGAGUGAUGUUCCUAAAGGUAGUCAAAUAUAAU [FmnAX 14 #SwitchBubble #StaticStem #K4Early] , answer whether its apparent KD of K4 kissing-loop reporter meets or surpasses 200 nM.
fulfilled

Given the entry AAUGGCGAGUGAUGUUCGCCCACCAAUGAUACCAGUGCCAUCGGACACCCUUGGCAGCAUACGGGCAGUGAUGUUGCUCUUGGAA [Exclusion Theophylline A GF 26] , answer whether its apparent KD of K4 kissing-loop reporter meets or surpasses 200 nM.
not fulfilled

Given the entry UAUACGAAGCAGUGAUGUUGCUUAUGAGAAGGAGCGCACGAAAGUGCAGGUAGGUCGCUCAGCCAUGUGGACGAAAACGUCCACA [whbob_SS_Arginine_A_sa110] , answer whether its apparent KD of K4 kissing-loop reporter meets or surpasses 200 nM.
not fulfilled

Given the entry UCAUCAUGAUGGUAGUAACCGCAUUGGGAGCGAGGACCGGUACGGCCGCCACUCGAAAUGUACAUAGCAGUAGUGAUGUUGCUGC [theeternabot_sameState_KL_Trp_A_47] , answer whether its apparent KD of K4 kissing-loop reporter meets or surpasses 200 nM.
not fulfilled

Given the entry AAGAGCCUCAAGAGGCAGUAUCUGCCUCAACGAGGACCGGUACGGCCGCCACUCGAAUAAUAGAGUGAUGUUCUAAGAGGCUCAA [AK8 SS Tryptophan A] , answer whether its apparent KD of K4 kissing-loop reporter meets or surpasses 200 nM.
fulfilled

Given the entry GGGUGUAGUGCGGCCGCCACUGUGAUAGUAGAAGAGUAUAGUGAUGUUAUAUAGGAUUAAUAGAAUAGGACCGGGCAUUAGACUU [#24 K4 Tryptophan B Same State] , answer whether its apparent KD of K4 kissing-loop reporter meets or surpasses 200 nM.
fulfilled

Given the entry AGAAGAGUGAUGUUCUUCUAUAUCUCAGAAGGAGCGACAUAAAUGUCAGGUAGGUCGCUGAGAUGAAAUCUCACACAGAUCUUGG [Arg A SS t8] , answer whether its apparent KD of K4 kissing-loop reporter meets or surpasses 200 nM.
not fulfilled

Given the entry UUUCGGUUCUGAGGAUAUUCGGACAAAUAUAGUGAUGUUGUAUAAGGAGGAGGGUGUUGGGAGUGAGGAGAAGGCAGAAGAGGAU [ExFMNB.S] , answer whether its apparent KD of K4 kissing-loop reporter meets or surpasses 200 nM.
fulfilled

Given the entry AGUGUUAGGUUAGAUACCAGCCGUCUGUGAGUAACCCACAGACCGCCAGUGAUGUUGGCAGGCCCUUGGCAGCUAACAGGACAGA [Anesarerza] , answer whether its apparent KD of K4 kissing-loop reporter meets or surpasses 200 nM.
fulfilled

Measured values drawn from the supplement of paper PMC9170038 for this set.
